# measurement-notes: Solubility of FMN in co-solvents
# Format: physicochemical
# test-settings: organic solvent or mixture; in ethanol
value-kind: solubility (µg/mL)
Please give a number only; it is taken to be in µg/mL.

INPUT: What value of measured solubility is listed for Cc1cc2nc3c(=O)[nH]c(=O)nc-3n(C[C@H](O)[C@H](O)[C@H](O)COP(=O)(O)O)c2cc1C [FMN, riboflavin-5′-phosphate] ?
OUTPUT: 80

* * *

# measurement-notes: Solubility of FMN in co-solvents
# Type: physicochemical
# test-settings: organic solvent or mixture; in propylene glycol
value-kind: solubility (µg/mL)
Please give a number only; it is taken to be in µg/mL.

INPUT: What value of measured solubility is listed for Cc1cc2nc3c(=O)[nH]c(=O)nc-3n(C[C@H](O)[C@H](O)[C@H](O)COP(=O)(O)O)c2cc1C [FMN, riboflavin-5′-phosphate] ?
OUTPUT: 5700

* * *

# measurement-notes: Solubility of FMN in co-solvents
# Assay type: physicochemical
# test-settings: organic solvent or mixture; in glycerin
value-kind: solubility (µg/mL)
Please give a number only; it is taken to be in µg/mL.

INPUT: What value of measured solubility is listed for Cc1cc2nc3c(=O)[nH]c(=O)nc-3n(C[C@H](O)[C@H](O)[C@H](O)COP(=O)(O)O)c2cc1C [FMN, riboflavin-5′-phosphate] ?
OUTPUT: 8900
